molecular target: M-phase inducer phosphatase 2 (Homo sapiens); assay: In vitro inhibitory activity against human recombinant Cdc25B phosphatase enzyme
Listing of recorded IC50 by entry.
Express your answer in µM, writing the number without its unit.

# STRUCTURE_SMILES_STRING, ASSAYED_TARGET, IC50 / µM
records = [
    ("O=S(=O)(/C=C/c1ccc2ccccc2c1)Nc1nc(-c2ccccc2)c(-c2ccccc2)s1", "M-phase inducer phosphatase 2 (Homo sapiens)", 22),
]

Query: Please look at this compound and report its IC50: "CCCc1sc(NS(=O)(=O)/C=C/c2ccc3ccccc3c2)nc1-c1ccc2ccccc2c1"
Reply: 69

Query: Please look at this compound and report its IC50: "CCCc1sc(NS(=O)(=O)/C=C/c2ccc(-c3ccccc3)cc2)nc1-c1ccc(Cl)cc1"
Reply: 38

Query: Please look at this compound and report its IC50: "CCCCc1ccc(/C=C/S(=O)(=O)Nc2nc(-c3ccccc3)c(-c3ccccc3)s2)cc1"
Reply: 58

---

biological target: UniProt:P51452; experiment: In vitro inhibitory activity against human recombinant VHR phosphatase enzyme
Listing of recorded IC50 by entry.

# STRUCTURE_SMILES_STRING, IC50
rows = [
    ("CCCCc1ccc(/C=C/S(=O)(=O)Nc2nc(-c3ccccc3)c(-c3ccccc3)s2)cc1", "39 µM"),
]

Query: Please look at this compound and report its IC50: "CCc1sc(NS(=O)(=O)/C=C/c2ccc([N+](=O)[O-])cc2)nc1-c1ccccc1"
Reply: 50 µM

Query: Please look at this compound and report its IC50: "CCCc1sc(NS(=O)(=O)/C=C/c2ccc3ccccc3c2)nc1-c1ccc2ccccc2c1"
Reply: 34 µM

Query: Please look at this compound and report its IC50: "COc1ccc(/C=C/S(=O)(=O)Nc2nc(-c3ccccc3)c(-c3ccccc3)s2)cc1OC"
Reply: > 100 µM

---

Listing of recorded pIC50 by entry.
target: UniProt:P51452; test: In vitro inhibitory activity against human recombinant VHR phosphatase enzyme
# pIC50 = -log10(concentration in molar units)

For orientation, consider the following solved cases.
# STRUCTURE_SMILES_STRING, pIC50
data = [
    ("N#Cc1ccc(/C=C/S(=O)(=O)Nc2nc(-c3ccccc3)c(-c3ccccc3)s2)cc1", 4.49),
    ("CCCc1sc(NS(=O)(=O)/C=C/c2ccccc2Cl)nc1-c1ccc(C(F)(F)F)cc1", 4.60),
]

Attention now turns to another entry.
Query: Please look at this compound and report its pIC50: "O=S(=O)(/C=C/c1ccc2ccccc2c1)Nc1nc(-c2ccccc2)c(-c2ccccc2)s1"
Reply: 4.52

---

molecular target: M-phase inducer phosphatase 2 (Homo sapiens); assay: In vitro inhibitory activity against human recombinant Cdc25B phosphatase enzyme
PROPERTY_MEASURED: IC50

For orientation, consider the following solved cases.
# STRUCTURE_SMILES_STRING, IC50
measured = [
    ("COc1ccc(/C=C/S(=O)(=O)Nc2nc(-c3ccccc3)c(-c3ccccc3)s2)cc1OC", "> 100 µM"),
    ("Cc1ccc(/C=C/S(=O)(=O)Nc2nc(-c3ccccc3)c(-c3ccccc3)s2)cc1", "> 100 µM"),
    ("CCCc1sc(NS(=O)(=O)/C=C/c2ccc(C)cc2)nc1-c1ccc(-c2ccccc2)cc1", "46 µM"),
    ("Cc1sc(NS(=O)(=O)/C=C/c2ccccc2Cl)nc1-c1ccc(Cl)cc1", "> 100 µM"),
]

Attention now turns to another entry.
Query: Please look at this compound and report its IC50: "CCc1sc(NS(=O)(=O)/C=C/c2ccc(S(C)(=O)=O)cc2)nc1-c1ccccc1"
Reply: > 100 µM

---

Target: M-phase inducer phosphatase 2 (Homo sapiens, UniProt P30305)
Sequence (P30305 whole entry): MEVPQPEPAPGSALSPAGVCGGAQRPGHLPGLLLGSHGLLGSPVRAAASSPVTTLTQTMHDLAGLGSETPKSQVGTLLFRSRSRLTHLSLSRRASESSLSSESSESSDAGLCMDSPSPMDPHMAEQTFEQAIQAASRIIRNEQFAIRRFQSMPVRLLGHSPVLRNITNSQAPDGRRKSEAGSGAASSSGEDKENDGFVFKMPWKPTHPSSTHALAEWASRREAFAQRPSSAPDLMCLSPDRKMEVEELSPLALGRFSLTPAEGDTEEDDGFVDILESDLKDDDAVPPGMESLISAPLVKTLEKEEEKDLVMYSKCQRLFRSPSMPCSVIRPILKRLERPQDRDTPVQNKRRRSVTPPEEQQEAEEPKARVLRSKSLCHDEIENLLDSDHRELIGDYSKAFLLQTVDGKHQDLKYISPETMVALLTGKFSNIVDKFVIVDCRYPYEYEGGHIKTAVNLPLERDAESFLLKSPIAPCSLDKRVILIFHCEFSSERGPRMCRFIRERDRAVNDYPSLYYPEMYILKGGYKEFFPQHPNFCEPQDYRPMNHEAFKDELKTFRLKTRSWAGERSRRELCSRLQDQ
Experiment: In vitro inhibitory activity against human recombinant Cdc25B phosphatase enzyme
pIC50: −log10 of the molar value.
PROPERTY_MEASURED: pIC50

For orientation, consider the following solved cases.
# STRUCTURE_SMILES_STRING, pIC50
measured = [
    ("CCc1sc(NS(=O)(=O)/C=C/c2ccccc2Cl)nc1-c1ccccc1", "< 4.00"),
    ("CCCc1sc(NS(=O)(=O)/C=C/c2ccccc2Cl)nc1-c1ccc(-c2ccccc2)cc1", "< 4.00"),
]

Query: Please look at this compound and report its pIC50: "O=S(=O)(/C=C/c1ccco1)Nc1nc(-c2ccccc2)c(-c2ccccc2)s1"
Reply: < 4.00

Query: Please look at this compound and report its pIC50: "CCCCCCCCCCc1sc(NS(=O)(=O)/C=C/c2ccccc2Cl)nc1-c1ccccc1"
Reply: < 4.00

Query: Please look at this compound and report its pIC50: "CCCc1sc(NS(=O)(=O)/C=C/c2ccc3ccccc3c2)nc1-c1ccc(-c2ccccc2)cc1"
Reply: < 4.00

---

biological target: Dual specificity protein phosphatase 3 (Homo sapiens); experiment: In vitro inhibitory activity against human recombinant VHR phosphatase enzyme
Sequence (P51452 whole entry): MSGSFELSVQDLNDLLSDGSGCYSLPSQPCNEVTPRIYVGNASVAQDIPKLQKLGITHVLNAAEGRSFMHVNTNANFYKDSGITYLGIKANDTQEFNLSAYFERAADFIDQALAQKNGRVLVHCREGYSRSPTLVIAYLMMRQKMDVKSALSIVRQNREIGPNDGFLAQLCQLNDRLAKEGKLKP
pIC50: −log10 of the molar value.
PROPERTY_MEASURED: pIC50

For orientation, consider the following solved cases.
# STRUCTURE_SMILES_STRING, ASSAYED_TARGET, pIC50
records = [
    ("CCCCCCCCCCc1sc(NS(=O)(=O)/C=C/c2ccccc2Cl)nc1-c1ccccc1", "Dual specificity protein phosphatase 3 (Homo sapiens)", "< 4.00"),
    ("CCc1sc(NS(=O)(=O)/C=C/c2ccc(S(C)(=O)=O)cc2)nc1-c1ccccc1", "Dual specificity protein phosphatase 3 (Homo sapiens)", "< 4.00"),
    ("O=S(=O)(/C=C/c1ccco1)Nc1nc(-c2ccccc2)c(-c2ccccc2)s1", "Dual specificity protein phosphatase 3 (Homo sapiens)", "< 4.00"),
    ("Cc1ccc(/C=C/S(=O)(=O)Nc2nc(-c3ccccc3)c(-c3ccccc3)s2)cc1", "Dual specificity protein phosphatase 3 (Homo sapiens)", "< 4.00"),
    ("Cc1sc(NS(=O)(=O)/C=C/c2ccccc2Cl)nc1-c1ccc(Cl)cc1", "Dual specificity protein phosphatase 3 (Homo sapiens)", "< 4.00"),
]

Query: Please look at this compound and report its pIC50: "CCCc1sc(NS(=O)(=O)/C=C/c2ccc(C)cc2)nc1-c1ccc(C(F)(F)F)cc1"
Reply: 4.51

Query: Please look at this compound and report its pIC50: "CCCc1sc(NS(=O)(=O)/C=C/c2ccc(-c3ccccc3)cc2)nc1-c1ccc(Cl)cc1"
Reply: 4.57

Query: Please look at this compound and report its pIC50: "CCc1sc(NS(=O)(=O)/C=C/c2ccccc2Cl)nc1-c1ccccc1"
Reply: < 4.00

Query: Please look at this compound and report its pIC50: "CCCc1sc(NS(=O)(=O)/C=C/c2ccc(C(F)(F)F)cc2)nc1-c1ccc(-c2ccccc2)cc1"
Reply: 4.38

Taken from ChEMBL document CHEMBL1134159.
